Taken from paper PMC4144951.

subject-of-test: the molecule itself
protocol-summary: SEC; 100 µl at 2.5, 5 and 10 mg/ml on Superdex 200 10/300 GL, 4°C, 25 mM HEPES pH 7.5, 150 mM NaCl, 2.5 mM DTT; apparent MW from column calibration; the shift of the peak with loaded concentration is read as self-association of the dimers with each other (dimer to higher species)
Below: a set of entries, each annotated with reported concentration dependence of apparent MW.

Solved entries (count: 2):
HSPB6 Q31L (natural protein, human, UniProt O14558 1-160, looked up, HSPB6, human, full-length protein with the point mutation Q31L; source: E. coli NiCo21 (DE3) with pRARE2, purified (subtractive IMAC, anion exchange, SEC); not shown: SUMO, N-terminal, cleaved) MEIPVPVQPSWLRRASAPLPGLSAPGRLFDLRFGEGLLEAELAALCPTTLAPYYLRAPSVALPVAQVPTDPGHFSVLLDVKHFSPEEIAVKVVGEHVEVHARHEERPDEHGFVAREFHRRYRLPPGVDPAAVTSALSPEGVLSIQAAPASAQAPPPAAAK    1.87 kDa/(mg/ml)
HSPB6 Q31A (natural protein, human, UniProt O14558 1-160, looked up, HSPB6, human, full-length protein with the point mutation Q31A; Mixture of dimers and what appear to be tetramers; source: E. coli NiCo21 (DE3) with pRARE2, purified (subtractive IMAC, anion exchange, SEC); not shown: SUMO, N-terminal, cleaved) MEIPVPVQPSWLRRASAPLPGLSAPGRLFDARFGEGLLEAELAALCPTTLAPYYLRAPSVALPVAQVPTDPGHFSVLLDVKHFSPEEIAVKVVGEHVEVHARHEERPDEHGFVAREFHRRYRLPPGVDPAAVTSALSPEGVLSIQAAPASAQAPPPAAAK    1.1 kDa/(mg/ml)

Please examine the following record next.
-- ask I'd like to know its concentration dependence of apparent MW. The protein in question is HSPB6 Δ51–60 (natural protein, human, UniProt O14558 1-160, looked up, HSPB6, human, full-length protein with residues 51-60 deleted; source: E. coli NiCo21 (DE3) with pRARE2, purified (subtractive IMAC, anion exchange, SEC); not shown: SUMO, N-terminal, cleaved) MEIPVPVQPSWLRRASAPLPGLSAPGRLFDQRFGEGLLEAELAALCPTTLALPVAQVPTDPGHFSVLLDVKHFSPEEIAVKVVGEHVEVHARHEERPDEHGFVAREFHRRYRLPPGVDPAAVTSALSPEGVLSIQAAPASAQAPPPAAAK
-- reply 0.31 kDa/(mg/ml)
